Measured IC50 values are reported for all entries that follow.
- tested-system: Fc portion of human IgG
- Construct: fused on or other part: Horseradish peroxidase chemically conjugated to the IgG (detection label)
- protocol-summary: Competitive protein A binding ELISA (inhibition of binding of protein A to human IgG)
- test-settings: HRP-human IgG, assay in PBS, read-out: IC50 (μM) Assay in PBS, concentration which inhibits 50% binding of protein A
- Method: As described above, this assay evaluates the ability of the exemplified compounds to mimic protein A. Such compounds can bind to the Fc portion of human IgG as ascertained by the inhibition of binding of protein A to human IgG. […] Bound HRP-IgG was detected by incubation with 100 μL of 2,2′-azino-di[3-ethylbenzthiazoline sulfonate] diammonium salt crystals (ABTS) solution for 20 min in the dark at room temperature. The plate was then read at 405 nm on a BIO-TEK® EL 800 Universal Microplate Reader. […]
Structures can show the parent of a compound that is named as a salt.
Number only, in µM; omit the unit.

Example entries begin here.
molecule=Nc1ccc(CCn2cnc3c(Nc4cccc(N)c4)nc(N)nc32)cc1 test_result=13
molecule=Nc1ccc(CCn2cnc3c(Nc4cccc(N)c4)nc(NCCO)nc32)cc1 test_result=64
molecule=Nc1cccc(Nc2ncnc3c2ncn3CCc2ccc(F)cc2)c1 test_result=0.6
molecule=Nc1cccc(Nc2nc(F)nc3c2ncn3CCc2ccc(OCc3ccccc3)cc2)c1 test_result=7.1

Form field IC50, entry Nc1ccc(CCn2cnc3c(Nc4cccc(N)c4)ncnc32)cc1 [Compound 1, dihydrochloride] : 1

Form field IC50, entry Nc1cccc(CCn2cnc3c(Nc4cccc(N)c4)ncnc32)c1 : 52

Form field IC50, entry Nc1ccc(CCn2cnc3c(Nc4cccc(N)c4)nc(NCC4CC4)nc32)cc1 : 0.7

Form field IC50, entry CC(C)(C)Nc1nc(Nc2cccc(N)c2)c2ncn(CCc3ccc(N)cc3)c2n1 : 1.8

Form field IC50, entry CC(C)(C)CNc1nc(Nc2cccc(N)c2)c2ncn(CCc3ccc(N)cc3)c2n1 : 6

Form field IC50, entry Nc1ccc(Cn2cnc3c(Nc4cccc(N)c4)ncnc32)cc1 : 0.2
